# Test system: KM12
# test: Growth inhibition of human KM12 cells assessed as cell growth at 10 uM incubated for 48 hrs by sulforhodamine B assay relative to control
# Format: functional
# run_conditions: read-out: Activity
measured_attribute: growth at 10 µM (%)
// note: answer is a bare numeric in %

Report measured growth at 10 µM on KM12; entry: "CC(=O)Nc1cccc(NC(=O)c2ccc(C(=O)Nc3cc(CCl)cc(NC(C)=O)c3)cc2)c1"
118

Report measured growth at 10 µM on KM12; entry: "CC(=O)Nc1cc(CO)cc(NC(=O)c2ccc(C(=O)NCCCN3CCOCC3)cc2)c1"
113

Report measured growth at 10 µM on KM12; entry: "CC(=O)Nc1cc(CCl)cc(NC(=O)c2ccc(C(=O)Nc3cccc(NC(=O)CCCN(C)C)c3)cc2)c1"
104

Report measured growth at 10 µM on KM12; entry: "CC(=O)Nc1cc(CO)cc(NC(=O)c2ccc(C(=O)Nc3cc(CO)cc(NC(C)=O)c3)cc2)c1"
136

Report measured growth at 10 µM on KM12; entry: "CC(=O)Nc1ccc(C(=O)Nc2cc(CO)cc(NC(C)=O)c2)cc1"
115

Report measured growth at 10 µM on KM12; entry: "CCN(CC)CC(=O)Nc1cccc(C(=O)Nc2cc(CO)cc(NC(C)=O)c2)c1"
110

---

# System: Poly(dA-dT)oligonucleotide
# test: Displacement of ethidium bromide from minor groove of poly(dA:dT) dsDNA (unknown origin) by fluorescence spectrophotometry
# Format: nucleic-acid assay
measured_attribute: C50 (µM)
// note: answer is a bare numeric in µM

Identify measured C50 corresponding to "CC(=O)Nc1cc(CCl)cc(NC(=O)c2ccc(C(=O)NCCCN(C)C)cc2)c1"
506

Identify measured C50 corresponding to "CC(=O)Nc1cc(CO[Si](C)(C)C(C)(C)C)cc(NC(=O)c2ccc(C(=O)Nc3cccc(NC(=O)CCCN(C)C)c3)cc2)c1"
5

Identify measured C50 corresponding to "CC(=O)Nc1cc(CCl)cc(NC(=O)c2ccc(C(=O)Nc3cccc(NC(=O)CCCN(C)C)c3)cc2)c1"
9.9

Identify measured C50 corresponding to "CC(=O)Nc1cc(CO)cc(NC(=O)c2ccc(C(=O)Nc3cccc(NC(=O)CCCN(C)C)c3)cc2)c1"
118

---

# System: SK-MEL-2
# test: Growth inhibition of human SK-MEL-2 cells assessed as cell growth at 10 uM incubated for 48 hrs by sulforhodamine B assay relative to control
# Type: functional
# run_conditions: read-out: Activity
measured_attribute: growth at 10 µM (%)
// note: answer is a bare numeric in %

Identify measured growth at 10 µM corresponding to "CC(=O)Nc1cccc(NC(=O)c2ccc(C(=O)Nc3cc(CO)cc(NC(C)=O)c3)cc2)c1"
88.1

Identify measured growth at 10 µM corresponding to "CCN(CC)CC(=O)Nc1ccc(C(=O)Nc2cc(CO)cc(NC(C)=O)c2)cc1"
107

Identify measured growth at 10 µM corresponding to "CC(=O)Nc1cc(CO)cc(NC(=O)c2ccc(NC(=O)CCCN3CCOCC3)cc2)c1"
101

Identify measured growth at 10 µM corresponding to "CC(=O)Nc1cc(CCl)cc(NC(=O)c2ccc(C(=O)NCCCN(C)C)cc2)c1"
102

Identify measured growth at 10 µM corresponding to "CC(=O)Nc1cc(CO)cc(NC(=O)c2ccc(C(=O)Nc3cccc(NC(=O)CCCN(C)C)c3)cc2)c1"
91.8
